Listed here are compounds together with their documented IC50.
Test: Antioxidant activity assessed as inhibition of Fe(II)-induced lipid peroxidation after 30 mins by TBARS assay
Type: functional
Provide only the numeric value, understood in µM.

Entry under review: O=C1N[C@H]2[C@H](CS[C@H]2CCCCC(=O)OCCCCC[Te]c2ccccc2)N1 . Reported IC50?
1.33

Try the compound c1ccc([Se][Se]c2ccccc2)cc1
248

Try the compound O=C1N[C@H]2[C@H](CS[C@H]2CCCCC(=O)OCCCC[Te]c2ccccc2)N1
5

Try the compound Cc1c(C)c2c(c(C)c1O)CC[C@@](C)(CCC[C@H](C)CCC[C@H](C)CCCC(C)C)O2 [ALPHA-TOCOPHEROL]
60.3

----------
Test: Cytotoxicity against CHOK1 cells assessed as inhibition of cell growth at 12.5 uM after 24 hrs by MTT assay relative to control
Format: cell-based, Cricetulus griseus
Conditions: chinese hamster, CHO-K1 cells
measure: inhibition at 24 h, 12.5 µM (%)
Provide only the numeric value, understood in %.

Entry under review: CCCCCCC[Te]c1ccccc1 . Reported inhibition at 24 h, 12.5 µM?
50
